Experiment: Metabolic stability in cryopreserved human hepatocytes assessed as parent compound remaining at 1 uM for 60 mins by HPLC-MS/MS analysis
Format: ADME, cell-based, Hepatocyte
Details: cryopreserved hepatocytes, read-out: Stability
measured-metric: remaining at 1 h, 1 µM (%)
Numbers only, in %.

**Q:** remaining at 1 h, 1 µM lookup needed for C[C@H](NP(=O)(OC[C@H]1O[C@@H](n2cc(F)c(=O)[nH]c2=O)C[C@@H]1O)Oc1cccc2ccccc12)C(=O)OCc1ccccc1 (stereo in doubt; form 1) [FOSIFLOXURIDINE NAFALBENAMIDE] , thanks.
**A:** 30

----------
Assay: Metabolic stability in cryopreserved human hepatocytes assessed as half life at 1 uM for 60 mins by HPLC-MS/MS analysis
Assay type: ADME, cell-based, Hepatocyte
Conditions: cryopreserved hepatocytes
measured-metric: half-life at 1 µM (min)
Give bare numbers, in min.

**Q:** half-life at 1 µM lookup needed for C[C@H](NP(=O)(OC[C@H]1O[C@@H](n2cc(F)c(=O)[nH]c2=O)C[C@@H]1O)Oc1cccc2ccccc12)C(=O)OCc1ccccc1 (stereo in doubt; form 1) [FOSIFLOXURIDINE NAFALBENAMIDE] , thanks.
**A:** 34

----------
Test: Stability in human plasma assessed as half life
Assay type: ADME, cell-free
Conditions: time <=24 hrs
measured-metric: half-life (h)
Numbers only, in h.

[
  {
    "compound": "O=c1[nH]cc(F)c(=O)[nH]1 [FLUOROURACIL]",
    "half-life / h": 0.133
  },
  {
    "compound": "C[C@H](NP(=O)(OC[C@H]1O[C@@H](n2cc(F)c(=O)[nH]c2=O)C[C@@H]1O)Oc1cccc2ccccc12)C(=O)OCc1ccccc1 (stereo in doubt; form 1) [FOSIFLOXURIDINE NAFALBENAMIDE]",
    "half-life / h": 9.7
  }
]

Shift focus to the following entry.
**Q:** half-life lookup needed for C[C@H](NP(=O)(OC[C@H]1O[C@@H](n2ccc(N)nc2=O)C(F)(F)[C@@H]1O)Oc1ccccc1)C(=O)OCc1ccccc1 (stereo partly drawn) [FOSGEMCITABINE PALABENAMIDE] , thanks.
**A:** 8.3
